protocol.description: physchem
condition.parameters: pH 7.4 buffer
measurement.type: log10 solubility thermodynamic (log10 of the value in µM)
Could you please treat all values as log10 of solubility thermodynamic in µM?

Which log10 solubility thermodynamic is listed for CC1(C)NC(=O)N(c2ccc([N+](=O)[O-])c(C(F)(F)F)c2)C1=O [NILUTAMIDE] ? 2.37

Dear colleague, I am looking for the recorded log10 solubility thermodynamic of the following compound: CCN(C(=O)Cc1ccc(S(C)(=O)=O)cc1)C1CCN(CCC(c2ccccc2)c2ccc(NC(=O)C(C)(C)C)cc2)CC1 (stereo not given) 2.00

Given Nc1ncc(-c2cnn(C3CCN(C(=O)CO)CC3)c2)cc1-c1nc2ccccc2o1 , state its recorded log10 solubility thermodynamic. 0.30

Any idea what its log10 solubility thermodynamic is? The compound is Clc1ccc(CN(Cc2ccc(Cl)cc2)c2nnn[nH]2)cc1 2.07

Given CNC(=O)c1ccc(N2C(=S)N(c3ccc(C#N)c(C(F)(F)F)c3)C(=O)C23CCC3)cc1F , state its recorded log10 solubility thermodynamic. 0.20

Would you kindly share the measured log10 solubility thermodynamic for O=S(=O)(Cc1cc(-c2ccccc2)no1)c1ccccc1 ? 0.82

For the compound CC(C)Cn1c(=O)n(C)c(=O)c2c(C(=O)N3CC[C@@H](O)C3)c(Cc3ccccc3C(F)(F)F)sc21 , what log10 solubility thermodynamic is on record? 2.74

Suppose we examine the compound Cc1cc(CN(CC(=O)Nc2ccc(Cl)cc2Cl)C2CCCCC2)ccc1OCC(=O)O ; what log10 solubility thermodynamic value has been reported? 2.91

Item under review: CS(=O)(=O)c1ccc(Oc2ccc(C#C[C@]3(O)CN4CCC3CC4)cc2)cc1 . Reported log10 solubility thermodynamic? 2.66

What value of log10 solubility thermodynamic has been reported for the following compound? CCn1cnc(-c2ccccc2)c1-c1nc2c(N)ncnc2s1 2.23

# query: log10 solubility thermodynamic of entry CCOc1ccc2nc(N)sc2c1 2.93

So what does the record say about log10 solubility thermodynamic for CCN(CCO)CCCOc1ccc2c(Nc3cc(CC(=O)Nc4cccc(F)c4F)[nH]n3)ncnc2c1 ? 1.97

Please report the recorded log10 solubility thermodynamic for COc1ccc(Br)c(C=O)c1O . 2.67

Looking for the measured log10 solubility thermodynamic of CC#C[C@]1(O)CC[C@H]2[C@@H]3CCC4=CC(=O)CCC4=C3[C@@H](c3ccc(N(C)C)cc3)C[C@@]21C , can you help? 0.28

For the compound COc1cc(Oc2ncnc3cc(OC)c(OC)cc23)ccc1CC(=O)Nc1cn(C)nc1C , what log10 solubility thermodynamic is on record? 0.26

Dear colleague, I am looking for the recorded log10 solubility thermodynamic of the following compound: Nc1nccc(/C=C/c2c(Cl)nc3sccn23)n1 2.51

Could you share which log10 solubility thermodynamic value was measured for COc1cc2c(NC(=O)Nc3c(Cl)cccc3Cl)ncnc2cc1OCC1CCN(C)CC1 ? 1.00

Sample Cc1cc(N)nc(CCNC(=O)c2ccc(C#N)cc2)c1 — what was its log10 solubility thermodynamic? 1.81

// log10 solubility thermodynamic lookup, key: O=C(Nc1ccc(Cl)c(S(=O)(=O)N2CCNCC2)c1O)Nc1cccc(F)c1Cl 2.66

Look at this compound and give its reported log10 solubility thermodynamic. Cc1oncc1C(=O)Nc1ccc(C(F)(F)F)cc1 [LEFLUNOMIDE] 1.83
